target_or_test_system: UniProt:P49760
Sequence (P49760 whole entry): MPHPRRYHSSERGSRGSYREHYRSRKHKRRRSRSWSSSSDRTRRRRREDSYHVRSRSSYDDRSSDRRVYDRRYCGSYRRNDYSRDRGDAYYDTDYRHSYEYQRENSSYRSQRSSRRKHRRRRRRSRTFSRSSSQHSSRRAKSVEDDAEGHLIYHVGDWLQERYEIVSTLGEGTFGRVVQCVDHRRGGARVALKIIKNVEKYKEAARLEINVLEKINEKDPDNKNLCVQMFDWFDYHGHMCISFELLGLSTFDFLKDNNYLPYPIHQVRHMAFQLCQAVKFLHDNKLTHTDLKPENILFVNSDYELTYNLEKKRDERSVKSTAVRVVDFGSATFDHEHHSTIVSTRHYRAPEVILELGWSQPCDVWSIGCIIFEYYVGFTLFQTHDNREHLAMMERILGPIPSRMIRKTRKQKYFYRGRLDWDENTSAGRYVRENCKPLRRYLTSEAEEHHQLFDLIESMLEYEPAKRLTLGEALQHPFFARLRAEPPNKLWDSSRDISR
Activity calls are given as the source filed them.
measured_attribute: Kd

Solved cases below.
Problem: Quick check: Kd of "Cc1ccc(C(=O)Nc2ccc(Oc3cc4cnn(C)c4cc3-c3cn[nH]c3)c(F)c2)c(=O)n1-c1ccc(F)cc1" ?
Solution: > 30 µM (inactive)

Problem: Quick check: Kd of "COCCN1CCN(Cc2ccc(-c3n[nH]c4c3C(=O)c3c(NC(=O)NN5CCOCC5)cccc3-4)cc2)CC1" ?
Solution: 0.018 µM (active)

Continuing:
Problem: Quick check: Kd of "CN1CCN(c2nc(C3=C(c4c[nH]c5ccccc45)C(=O)NC3=O)c3ccccc3n2)CC1" ?
Solution: 0.121 µM

Problem: Quick check: Kd of "COc1cc2ncnc3c2cc1OCCCCCN(C)Cc1ccc(Br)cc1N3" ?
Solution: > 30 µM (inactive)

Problem: Quick check: Kd of "O=C(Nc1ccc(OC(F)(F)F)cc1)c1sccc1NCc1ccnc2ccccc12" ?
Solution: > 30 µM (inactive)

Problem: Quick check: Kd of "CC(C)CC(=O)Nc1[nH]nc2c1CN(C(=O)C1CCN(C)CC1)C2(C)C" ?
Solution: 0.007 µM

Problem: Quick check: Kd of "O=C(NC[C@H](O)CO)c1ccncc1Nc1ccc(I)cc1F" ?
Solution: > 30 µM (inactive)

Problem: Quick check: Kd of "O[C@H]1CC[C@H](Nc2ncc3nc(Nc4c(F)cc(F)cc4F)n([C@H]4CCOC4)c3n2)CC1" ?
Solution: > 30 µM (inactive)

###

List of Kd tested on G protein-coupled receptor kinase 6 (Homo sapiens, UniProt P43250). Also: in the data inactive means no Kd found up to 30 µM.
Sequence (P43250 whole entry): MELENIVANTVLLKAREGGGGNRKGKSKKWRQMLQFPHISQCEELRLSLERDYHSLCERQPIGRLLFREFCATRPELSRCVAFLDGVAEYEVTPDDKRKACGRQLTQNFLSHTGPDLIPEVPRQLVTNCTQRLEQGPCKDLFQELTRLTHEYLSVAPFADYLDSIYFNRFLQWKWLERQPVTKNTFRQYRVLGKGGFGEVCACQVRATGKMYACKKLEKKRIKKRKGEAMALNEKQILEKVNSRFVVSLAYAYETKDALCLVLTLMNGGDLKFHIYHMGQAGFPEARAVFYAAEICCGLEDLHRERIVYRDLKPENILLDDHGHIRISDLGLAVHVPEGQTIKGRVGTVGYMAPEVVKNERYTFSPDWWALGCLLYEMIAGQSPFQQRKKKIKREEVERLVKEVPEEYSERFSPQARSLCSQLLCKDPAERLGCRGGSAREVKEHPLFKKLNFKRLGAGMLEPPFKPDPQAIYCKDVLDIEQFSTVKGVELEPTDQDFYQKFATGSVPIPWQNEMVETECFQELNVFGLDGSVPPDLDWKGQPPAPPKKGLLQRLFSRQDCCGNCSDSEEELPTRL
Active and inactive are the calls of the source.

Solved cases below.
Problem: # query: Kd | item "Cn1cc(-c2[nH]c3cc(NC(=O)[C@H](N)C4CCCCC4)cc4c3c2C=NNC4=O)cn1" | system: G protein-coupled receptor kinase 6 (Homo sapiens, UniProt P43250); also: in the data inactive means no Kd found up to 30 µM
Solution: > 30 µM (inactive)

Problem: # query: Kd | item "S=C(NCc1ccc2c(c1)OCO2)N1CCN(c2ncnc3c2oc2ccccc23)CC1" | system: G protein-coupled receptor kinase 6 (Homo sapiens, UniProt P43250); also: in the data inactive means no Kd found up to 30 µM
Solution: > 30 µM (inactive)

Continuing:
Problem: # query: Kd | item "C[C@@]1(C(=O)Nc2ccc(F)nc2)CCCN1c1nc(Nc2cc(C3CC3)n[nH]2)c2cccn2n1" | system: G protein-coupled receptor kinase 6 (Homo sapiens, UniProt P43250); also: in the data inactive means no Kd found up to 30 µM
Solution: > 30 µM (inactive)

Problem: # query: Kd | item "c1cc(OCCN2CCCCC2)cc(-c2n[nH]c3ccc(-c4nc[nH]n4)cc23)c1" | system: G protein-coupled receptor kinase 6 (Homo sapiens, UniProt P43250); also: in the data inactive means no Kd found up to 30 µM
Solution: > 30 µM (inactive)

Problem: # query: Kd | item "CNC(=O)c1cc(COc2nnc(Nc3ccc(Cl)cc3)c3ccoc23)ccn1" | system: G protein-coupled receptor kinase 6 (Homo sapiens, UniProt P43250); also: in the data inactive means no Kd found up to 30 µM
Solution: > 30 µM (inactive)

Problem: # query: Kd | item "CCc1cc2c(cc1N1CCC(N3CCOCC3)CC1)C(C)(C)c1[nH]c3cc(C#N)ccc3c1C2=O" | system: G protein-coupled receptor kinase 6 (Homo sapiens, UniProt P43250); also: in the data inactive means no Kd found up to 30 µM
Solution: > 30 µM (inactive)

Problem: # query: Kd | item "Cc1c(Cn2c(C)nc3c(C(=O)O)cc(N4CCOCC4)cc32)cccc1C(F)(F)F" | system: G protein-coupled receptor kinase 6 (Homo sapiens, UniProt P43250); also: in the data inactive means no Kd found up to 30 µM
Solution: > 30 µM (inactive)

Problem: # query: Kd | item "CC(C)CC(=O)Nc1[nH]nc2c1CN(C(=O)C1CCN(C)CC1)C2(C)C" | system: G protein-coupled receptor kinase 6 (Homo sapiens, UniProt P43250); also: in the data inactive means no Kd found up to 30 µM
Solution: > 30 µM (inactive)

###

target_or_test_system: Mitogen-activated protein kinase kinase kinase 2 (Homo sapiens, UniProt Q9Y2U5); also: in the data inactive means no Kd found up to 30 µM
Sequence (Q9Y2U5 whole entry): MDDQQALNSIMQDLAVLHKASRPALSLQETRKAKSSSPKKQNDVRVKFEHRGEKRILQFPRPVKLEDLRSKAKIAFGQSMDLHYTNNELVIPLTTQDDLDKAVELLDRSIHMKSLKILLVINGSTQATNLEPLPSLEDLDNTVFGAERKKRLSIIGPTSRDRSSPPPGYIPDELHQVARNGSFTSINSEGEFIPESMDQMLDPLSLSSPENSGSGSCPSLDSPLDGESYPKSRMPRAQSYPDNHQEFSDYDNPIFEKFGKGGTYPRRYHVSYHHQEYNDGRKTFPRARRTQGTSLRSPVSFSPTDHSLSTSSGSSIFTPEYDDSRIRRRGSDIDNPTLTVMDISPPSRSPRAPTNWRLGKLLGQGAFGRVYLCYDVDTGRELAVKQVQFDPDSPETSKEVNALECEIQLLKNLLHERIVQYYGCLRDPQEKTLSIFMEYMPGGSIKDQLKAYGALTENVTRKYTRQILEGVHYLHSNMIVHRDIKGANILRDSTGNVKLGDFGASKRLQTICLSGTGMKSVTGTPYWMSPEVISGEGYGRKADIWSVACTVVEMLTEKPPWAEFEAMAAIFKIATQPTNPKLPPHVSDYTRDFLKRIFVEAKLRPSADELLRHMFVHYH
The source made the active and inactive calls.
Bench note: report the call from Yes (active), No (inactive)

Problem: Test call for this molecule, please: "CCc1cc2c(cc1N1CCC(N3CCOCC3)CC1)C(C)(C)c1[nH]c3cc(C#N)ccc3c1C2=O"
Solution: No

Problem: Test call for this molecule, please: "C#Cc1cccc(Nc2ncnc3cc4c(cc23)OCCOCCOCCO4)c1"
Solution: No

Problem: Test call for this molecule, please: "NC[C@@](O)(c1ccc(Cl)cc1)c1ccc(-c2cn[nH]c2)cc1"
Solution: No

Continuing:
Problem: Test call for this molecule, please: "CNC(=O)c1ccc(Nc2ncc(C(F)(F)F)c(NCc3nccnc3N(C)S(C)(=O)=O)n2)cc1"
Solution: No

Problem: Test call for this molecule, please: "COc1cc(F)c(F)c(Nc2ccc(I)cc2F)c1NS(=O)(=O)C1(C[C@H](O)CO)CC1"
Solution: No

Problem: Test call for this molecule, please: "COc1cccc(Nc2ncnn3ccc(CN4CC[C@@H](N)[C@H](O)C4)c23)c1"
Solution: Yes

Problem: Test call for this molecule, please: "CC[C@@](C)(Nc1ccnc(-c2c[nH]c3ncccc23)n1)C(=O)NCC(F)(F)F"
Solution: Yes

###

target_or_test_system: Macrophage-stimulating protein receptor (Homo sapiens, UniProt Q04912); also: in the data inactive means no Kd found up to 30 µM
Sequence (Q04912 25-304 limits assumed): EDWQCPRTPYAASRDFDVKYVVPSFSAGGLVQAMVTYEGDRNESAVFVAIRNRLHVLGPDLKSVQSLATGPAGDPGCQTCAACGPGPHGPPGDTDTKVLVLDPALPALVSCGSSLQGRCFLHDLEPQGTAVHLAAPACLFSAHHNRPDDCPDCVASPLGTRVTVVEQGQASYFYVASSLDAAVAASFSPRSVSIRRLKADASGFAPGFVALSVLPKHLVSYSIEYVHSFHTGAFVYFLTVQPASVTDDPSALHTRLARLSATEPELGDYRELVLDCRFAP
Sequence (Q04912 310-1400 limits assumed): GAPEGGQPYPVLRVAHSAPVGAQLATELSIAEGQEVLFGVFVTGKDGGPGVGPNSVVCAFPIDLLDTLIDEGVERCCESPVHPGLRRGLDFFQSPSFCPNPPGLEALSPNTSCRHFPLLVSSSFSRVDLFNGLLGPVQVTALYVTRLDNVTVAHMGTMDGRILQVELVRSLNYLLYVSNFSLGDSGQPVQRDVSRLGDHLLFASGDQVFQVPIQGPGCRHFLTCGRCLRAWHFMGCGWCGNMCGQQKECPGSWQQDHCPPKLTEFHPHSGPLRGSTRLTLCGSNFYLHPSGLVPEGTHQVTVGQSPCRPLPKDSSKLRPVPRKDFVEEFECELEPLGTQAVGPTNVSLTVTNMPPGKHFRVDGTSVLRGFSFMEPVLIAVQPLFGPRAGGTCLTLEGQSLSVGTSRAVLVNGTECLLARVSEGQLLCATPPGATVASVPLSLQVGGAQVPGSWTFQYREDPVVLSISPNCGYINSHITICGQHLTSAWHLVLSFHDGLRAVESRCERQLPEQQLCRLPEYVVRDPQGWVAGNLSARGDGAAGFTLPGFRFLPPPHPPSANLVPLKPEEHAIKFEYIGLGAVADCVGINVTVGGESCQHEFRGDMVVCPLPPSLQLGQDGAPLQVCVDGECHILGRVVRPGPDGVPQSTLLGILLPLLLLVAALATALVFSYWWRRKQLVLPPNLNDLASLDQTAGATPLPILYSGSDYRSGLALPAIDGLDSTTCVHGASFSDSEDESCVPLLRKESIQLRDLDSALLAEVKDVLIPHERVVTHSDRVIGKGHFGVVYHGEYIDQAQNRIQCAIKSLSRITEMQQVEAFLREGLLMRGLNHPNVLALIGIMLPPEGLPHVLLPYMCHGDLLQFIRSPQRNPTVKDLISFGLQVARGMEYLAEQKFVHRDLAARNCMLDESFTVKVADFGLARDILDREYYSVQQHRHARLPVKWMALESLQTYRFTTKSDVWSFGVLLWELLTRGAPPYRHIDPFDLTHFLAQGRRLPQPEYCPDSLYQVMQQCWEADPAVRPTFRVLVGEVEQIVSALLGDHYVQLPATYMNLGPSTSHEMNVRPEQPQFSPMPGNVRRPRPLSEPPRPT
Calls of active or inactive are those of the source.
Bench note: report the call from active, inactive

Observe how each entry below is paired with its result.
Problem: Test call for this compound, please: S=C(NCc1ccc2c(c1)OCO2)N1CCN(c2ncnc3c2oc2ccccc23)CC1 [AMUVATINIB]
Solution: inactive

Problem: Test call for this compound, please: O=C(NC[C@H](O)CO)c1ccncc1Nc1ccc(I)cc1F [PIMASERTIB]
Solution: inactive

Problem: Test call for this compound, please: COc1cccc2cc(-c3nc([C@H]4CC[C@H](C(=O)O)CC4)n4ncnc(N)c34)[nH]c12 [OSI-027]
Solution: inactive

Continuing:
Problem: Test call for this compound, please: CCc1cc2c(cc1N1CCC(N3CCOCC3)CC1)C(C)(C)c1[nH]c3cc(C#N)ccc3c1C2=O [ALECTINIB]
Solution: inactive

Problem: Test call for this compound, please: O=C(O)c1ccc2c(c1)nc(Nc1cccc(Cl)c1)c1ccncc12 [SILMITASERTIB]
Solution: inactive

Problem: Test call for this compound, please: CNC(=O)c1cc(COc2nnc(Nc3ccc(Cl)cc3)c3ccoc23)ccn1 [TELATINIB]
Solution: inactive

Problem: Test call for this compound, please: CC(C)(O)CC(=O)NCCn1ccc2ncnc(Nc3ccc(Oc4cccc(C(F)(F)F)c4)c(Cl)c3)c21 [TAK-285]
Solution: inactive

Problem: Test call for this compound, please: CCN1CCN(Cc2ccc(Nc3ncc(F)c(-c4cc(F)c5nc(C)n(C(C)C)c5c4)n3)nc2)CC1 [ABEMACICLIB]
Solution: inactive

Problem: Test call for this compound, please: NC(=O)c1ccc(N(C(N)=O)c2c(F)cccc2F)nc1-c1ccc(F)cc1F [VX-702]
Solution: inactive

Problem: Test call for this compound, please: Cc1c(Cn2c(C)nc3c(C(=O)O)cc(N4CCOCC4)cc32)cccc1C(F)(F)F [GSK-2636771]
Solution: inactive

Problem: Test call for this compound, please: COc1cc(Nc2ncc(F)c(Nc3ccc4c(n3)N(COP(=O)(O)O)C(=O)C(C)(C)O4)n2)cc(OC)c1OC [FOSTAMATINIB]
Solution: active

###

target_or_test_system: Tyrosine-protein kinase Lck (Homo sapiens, UniProt P06239); also: in the data inactive means no Kd found up to 30 µM
Sequence (P06239 whole entry): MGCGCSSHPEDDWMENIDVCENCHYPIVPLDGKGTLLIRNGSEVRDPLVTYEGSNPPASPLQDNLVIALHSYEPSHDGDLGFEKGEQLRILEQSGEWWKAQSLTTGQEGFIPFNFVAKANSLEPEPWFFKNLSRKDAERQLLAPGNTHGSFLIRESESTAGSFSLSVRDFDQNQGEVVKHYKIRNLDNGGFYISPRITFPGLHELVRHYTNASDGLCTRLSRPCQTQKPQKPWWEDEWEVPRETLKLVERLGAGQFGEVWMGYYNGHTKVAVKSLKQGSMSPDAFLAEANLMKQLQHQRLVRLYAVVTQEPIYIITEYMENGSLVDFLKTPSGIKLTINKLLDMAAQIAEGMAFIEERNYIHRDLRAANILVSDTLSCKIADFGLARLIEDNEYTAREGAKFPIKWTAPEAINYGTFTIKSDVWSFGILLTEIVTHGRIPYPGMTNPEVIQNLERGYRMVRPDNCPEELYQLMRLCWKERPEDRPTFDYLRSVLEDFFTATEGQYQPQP
Activity calls are given as the source filed them.
Bench note: report the call from class 1 = active, class 0 = inactive

Problem: Test call for this molecule, please: "O=c1[nH]c([C@@H]2CCCN2)nc2c1oc1ccc(Cl)cc12"
Solution: class 0

Continuing:
Problem: Test call for this molecule, please: Cc1cc(C(=O)Nc2cc(Oc3ccc4nc(NC(=O)C5CC5)cn4n3)ccc2C)n(C)n1 [TAK-593]
Solution: class 0

Problem: Test call for this molecule, please: COc1cc2ncnc(Nc3ccc(F)c(Cl)c3)c2cc1NC(=O)/C=C/CN1CCCCC1 [DACOMITINIB ANHYDROUS]
Solution: class 0

Problem: Test call for this molecule, please: CNC(=O)c1ccc(Nc2ncc(C(F)(F)F)c(NCc3nccnc3N(C)S(C)(=O)=O)n2)cc1 [DEFACTINIB]
Solution: class 0

Problem: Test call for this molecule, please: O=C(NOC[C@H](O)CO)c1ccc(F)c(F)c1Nc1ccc(I)cc1F [MIRDAMETINIB]
Solution: class 0

Problem: Test call for this molecule, please: CCc1nc(C(N)=O)c(Nc2ccc(N3CCC(N4CCN(C)CC4)CC3)c(OC)c2)nc1NC1CCOCC1 [GILTERITINIB]
Solution: class 0

Problem: Test call for this molecule, please: Cc1cc(Nc2nc(N[C@@H](C)c3ncc(F)cn3)ncc2Cl)n[nH]1 [AZD-1480]
Solution: class 0

Problem: Test call for this molecule, please: Cn1c(=O)c(F)c(Nc2ccc(I)cc2F)c2c(=O)n(C[C@@H](O)CO)cnc21 [TAK-733]
Solution: class 0

Problem: Test call for this molecule, please: COc1cccc2cc(-c3nc([C@H]4CC[C@H](C(=O)O)CC4)n4ncnc(N)c34)[nH]c12 [OSI-027]
Solution: class 0

Problem: Test call for this molecule, please: COc1ccc(-c2ccc3ncc4c(c3c2)n(-c2ccc(N3CCNCC3)c(C(F)(F)F)c2)c(=O)n4C)cn1 [BGT-226 FREE BASE]
Solution: class 0

Problem: Test call for this molecule, please: Cc1cc(-c2cc(OC(=O)c3ccccc3)ccc2Cl)cc2nnc(Nc3ccc(OCCN4CCCC4)cc3)nc12 [TG100-801]
Solution: class 1

Problem: Test call for this molecule, please: NC(=O)c1ccc(N(C(N)=O)c2c(F)cccc2F)nc1-c1ccc(F)cc1F [VX-702]
Solution: class 0

Problem: Test call for this molecule, please: C=CC(=O)Nc1cccc(Nc2nc(Nc3ccc(N4CCN(C(C)=O)CC4)cc3OC)ncc2C(F)(F)F)c1 [ROCILETINIB]
Solution: class 0

Problem: Test call for this molecule, please: COc1ccc2c(OCc3nnc4ccc(-c5ccccc5)nn34)ccnc2c1 [AMG-208]
Solution: class 0

Problem: Test call for this molecule, please: C[C@@H]1COC(Nc2ccc3ncnc(Nc4ccc(OCc5nccs5)c(Cl)c4)c3c2)=N1 [VARLITINIB]
Solution: class 0

Problem: Test call for this molecule, please: O=C(O)c1ccc2c(c1)nc(Nc1cccc(Cl)c1)c1ccncc12 [SILMITASERTIB]
Solution: class 0

Problem: Test call for this molecule, please: Cc1c(Cn2c(C)nc3c(C(=O)O)cc(N4CCOCC4)cc32)cccc1C(F)(F)F [GSK-2636771]
Solution: class 0
